The measurements presented in this section are drawn from the nanobody polyreactivity screen of Harvey et al. (2022).

# protocolText: yeast display, Sf9 membrane polyspecificity reagent, FACS + sequencing; frameworks hold sequencing errors
readoutLabel: polyreactivity (PSR sort gate)

Exam item: Quick check: polyreactivity (PSR sort gate) of QFQLVESGGGLFQAGGSLRLSSAASGITFRYYAMGWYRQAPGKERELVAAITRSGSSTFYADSVKGRFTISLDNAKNTVYLQMNSLKPEDTAVYYCAAESVRAVFPDRYKYWGQGTQVTVSS ?
Marked response: high polyreactivity

Exam item: # repeat for QVQLVESGGGLVQAGGSLRLSCAASGFIFVYNDMGWYRQAPGKERELVAAISTSGGSTYYADSVKGRFTISRDNAKNTVYLQMNSLKPEDTAVYYCAAGPSYYPFFWPDFEYWGQGTQVTVSS
Marked response: high polyreactivity

====

# protocolText: yeast display, Sf9 membrane polyspecificity reagent, FACS + sequencing; frameworks hold sequencing errors
readoutLabel: polyreactivity (PSR sort gate)

Take a look at these entries with their results.
Exam item: Quick check: polyreactivity (PSR sort gate) of QVHLVESGGGLVQAGGSLRLSCAASGIIFYYYTMGWYRQPPGKERELVASISRDGGSTHYADSVKGRFTISRDNAKNTVYLQMNSLKPEDTAVYYCAARYPTGSSYAFYRRKVYYWGQGTQVTVSS ?
Marked response: high polyreactivity

Exam item: # repeat for QVQLVESGGGLVQAGGSLRLICAASGRISAFNAMGWYRQAPGKERELVAAINVSGGNTYYADSVKGRFTISRDNAKNTVYLQMNSMKPEDTAVYYCAAERRRWGLDYYYWGQGTQVTVSS
Marked response: high polyreactivity

Exam item: # repeat for QVQLVESGGCLVQAGGSLRLSCAASGSIFKGYAMGWSRQAPGKERELVAAITIDGSTYYADSVKGRFTISRDNAKNTVYLQMNSLKPEDTAVYYCAAVYLWYGSWPLHFAAYDYWGQGTQVTVSS
Marked response: low polyreactivity

Exam item: # repeat for QVQLVESGGRLVQAGGSLRLSCAPSGFTFYRYAMGWYRQAPGKEREFVAAITWSGGSTYYADSVKGRFTISRDNSKNTVYLQMNSLKPEDTAVYYCAAYVGFDGTREYDYWGQGTQVTVSS
Marked response: high polyreactivity

More entries:
Exam item: Quick check: polyreactivity (PSR sort gate) of QVQLVESGGGLVQAGGSLRLSCAASGSIFVYYAMGWYRQAPGKERELVAAISSTGGRTYYADSVKGRFTISRDNAKNTVYLQMNSLNPEDTAVYYCAKDYGSYFIFLSYPRSRYDYWGQGTQVTVSS ?
Marked response: low polyreactivity

====

# protocolText: yeast display, Sf9 membrane polyspecificity reagent, FACS + sequencing; frameworks hold sequencing errors
readoutLabel: polyreactivity (PSR sort gate)

Take a look at these entries with their results.
Exam item: Quick check: polyreactivity (PSR sort gate) of QVQLVESGGGLVQAGGSLGLSCAASGSIFSRNTMGWYRPARGKERELVAAITSSGGNTYYADSVKGRFTISRDNAKNTVYLQMNSLKPDDTAVYYCAADVAQVGYQVGDSEIYPGYEDWGQGSQVTVSS ?
Marked response: low polyreactivity

Exam item: # repeat for QVQIVESVGGLFQAGGTLRLICAASGLTFRSYTMGWYRQAPGKERELVAAISSGGSTYYADSVKGRFTISRDNAKNTVYLQMNSLKPEDTAVYYCAARAPWPKWGYYYWGQGTQVTVSS
Marked response: high polyreactivity

Exam item: # repeat for QVQLVESGGGLVQAGGSLRLSCAASGSIFGLNAMGWYRQAPGKERELVARISTGSSTNYADSVKGRFTISRDNAKNTVYLQMNSLKPEDTAVYYCAADVDGGRHYGYWGQGTQVTVSS
Marked response: low polyreactivity

Exam item: # repeat for QVQLVESGGGLVQAGGSLRLSCAASGLIIYRYAMGWYRQAPGKERELVAAISSTGGRTYYADSVKGRFTISRDNAKNTVYLQMNSLKPEDTAVYYCNADYGWKYVQYYYWGQGTQVTVSS
Marked response: high polyreactivity

Exam item: # repeat for QVQLVESGGGLVQAGGSLRLSCAASGRIFVDYDMGWYRPAPGKERELVATISSGGSTNYADSVKGRFTISRDNAKNTVYLQMNSLKPEDTAVYYCAASSYSTSYIRGDYWGQGTQVTVSS
Marked response: low polyreactivity

More entries:
Exam item: Quick check: polyreactivity (PSR sort gate) of QVQLVESGGGLVQAGGSIRLSCAASGRIFGSYVRGWYRQGPGKESELVAAISRRGGSTYYADSVTWRFTISRDNAKNTVYLQMNSLTPEDTAVYYCAAEFSPSSNPYDYWGQGTQVTVSS ?
Marked response: high polyreactivity

Exam item: # repeat for QVQLVESGGVLVQAGGSLRLSCAASGRTFSPYAMGWARQAPGKDRELVAAITSRGASTYYADSVKGRFTISRDNAKNTVYLQMNSLKPEDTAVYYCNSGRTYRRLGDYWGQGTQVTVSS
Marked response: high polyreactivity

Exam item: # repeat for QVQLVESGGGLVQAGGSLRLSCAASGRNFSNYAMGWYRQAPGKERELVAAIRATGTTTYYADSVKGRFTISRDNAKNTVYLQMNSLKPDDTAVYYCAARGSRYRSSGYDYWGQGTQVTVSS
Marked response: high polyreactivity
